Each recorded value in this set is attributed to the RNAGym collection of RNA variant scans (doi:10.1002/anie.201605470).

B1: Osa-1-4 twister ribozyme (parent)
chain: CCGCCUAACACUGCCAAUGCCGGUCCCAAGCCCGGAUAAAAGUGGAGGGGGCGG

Variants of: B1
Test Protocol: self-cleavage, relative activity (ratio to wild type); higher = more cleavage; co-transcriptional
Measurement Label: self-cleavage
Write the value as a bare number.

Take a look at these entries with their results.
Changes: A41C C27A
self-cleavage: 0.13

Changes: G22C U18A
self-cleavage: 0.14

Changes: C15G C20A
self-cleavage: 0.54

// next item, self-cleavage requested
For record C25G G19C the listed self-cleavage is 0.03
